experiment: Intrinsic clearance in mouse liver microsomes in presence of NADPH by LC-MS analysis; assay type: ADME, Microsome; details: read-out: CLH
observed.property: CLint scaled (mL/min/kg)
API: value field is a number in mL/min/kg; no unit string.

Completed entries (count: 2):
- molecule: "O=C(c1ccc(F)cc1)C1CCN(CCn2c(=O)[nH]c3ccccc3c2=O)CC1 [KETANSERIN]"
  observed.property: "CLint scaled"
  measured.number: 267
- molecule: "CC1CCN(Cc2ccc3nc(NC(=O)NN=C(c4ccccn4)c4ccccn4)sc3c2)CC1"
  observed.property: "CLint scaled"
  measured.number: 326

Note: attention shifts to another entry.
Task: Kindly indicate its recorded CLint scaled. Item: C/C(=N\NC(=O)Nc1nc2ccc(CN3CCC(C)CC3)cc2s1)c1ccccn1
Result: 102

###

Quick reference: pIC50 of the listed items.
system: U-937; experiment: Antiproliferative activity against human procaspase-3 over-expressing U937 cells after 24 hrs by CCK-8 assay; format: functional, cell-based; details: U-937, 24 h
pIC50: −log10 of the molar value.

Completed entries (count: 3):
- molecular.string: "C/C(=N\\NC(=O)Nc1nc2ccc(CN3CCC(C)CC3)cc2s1)c1ccccc1"
  pIC50: "< 4.40"
- molecular.string: "C/C(=N\\NC(=O)Nc1nc2ccc(CN3CCC(C)CC3)cc2s1)c1cnccn1"
  pIC50: "< 4.40"
- molecular.string: "CC1CCN(Cc2ccc(NC(=O)NN=C(c3ccccc3)c3ccccc3)cc2)CC1"
  pIC50: "< 4.60"

Note: attention shifts to another entry.
Task: Kindly indicate its recorded pIC50. Item: CN(C)Cc1ccc2nc(NC(=O)N/N=C/c3ccccn3)sc2c1
Result: 4.63

###

system: U-937; test: Antiproliferative activity against human procaspase-3 over-expressing U937 cells after 24 hrs by CCK-8 assay; type: functional, cell-based; details: U-937, 24 h
pIC50: −log10 of the molar value.
We use 5 as the dividing line for pIC50: on or above the line is True, below is False.

Known results for compounds:
- molecular.string: "CC1CCN(Cc2ccc3nc(NC(=O)NN=C(c4ccccn4)c4ccccn4)sc3c2)CC1"
  qualitative.label: "True"
- molecular.string: "C/C(=N\\NC(=O)Nc1ccc(CN2CCC(C)CC2)cc1)c1cnccn1"
  qualitative.label: "False"
- molecular.string: "CCN(CC)Cc1ccc(NC(=O)NN=C(c2ccccn2)c2ccccn2)cc1"
  qualitative.label: "False"
- molecular.string: "C/C(=N\\NC(=O)Nc1nc2ccc(CN(C)C)cc2s1)c1ccccn1"
  qualitative.label: "False"
- molecular.string: "CN(C)Cc1ccc(NC(=O)N/N=C/c2ccccn2)cc1"
  qualitative.label: "False"

Consider now this further compound.
Task: Confirm if pIC50 reported for the compound CCN(CC)Cc1ccc2nc(NC(=O)N/N=C(\C)c3ccc(F)cc3)sc2c1 is 5 or above.
Result: False

###

Quick reference: half-life of the listed items.
test: Half life in mouse liver microsomes in presence of NADPH by LC-MS analysis; format: ADME, Microsome
Answer as a quantity: numeral, then unit.

- molecular.string: "O=C(c1ccc(F)cc1)C1CCN(CCn2c(=O)[nH]c3ccccc3c2=O)CC1"
  observed.property: "half-life"
  result: "20.5 min"
- molecular.string: "CC1CCN(Cc2ccc3nc(NC(=O)NN=C(c4ccccn4)c4ccccn4)sc3c2)CC1"
  observed.property: "half-life"
  result: "16.7 min"

Task: Kindly indicate its recorded half-life. Item: C/C(=N\NC(=O)Nc1nc2ccc(CN3CCC(C)CC3)cc2s1)c1ccccn1
Result: 53.6 min
